# System name: androgen receptor (AR) splicing variant AR-v7 (Homo sapiens)
# Construct: The degradation activity of compounds on AR-v7 in 22RV1 cells; host or cells: 22RV1 cells
# Sequence (P10275 1-644 isoform P10275-3): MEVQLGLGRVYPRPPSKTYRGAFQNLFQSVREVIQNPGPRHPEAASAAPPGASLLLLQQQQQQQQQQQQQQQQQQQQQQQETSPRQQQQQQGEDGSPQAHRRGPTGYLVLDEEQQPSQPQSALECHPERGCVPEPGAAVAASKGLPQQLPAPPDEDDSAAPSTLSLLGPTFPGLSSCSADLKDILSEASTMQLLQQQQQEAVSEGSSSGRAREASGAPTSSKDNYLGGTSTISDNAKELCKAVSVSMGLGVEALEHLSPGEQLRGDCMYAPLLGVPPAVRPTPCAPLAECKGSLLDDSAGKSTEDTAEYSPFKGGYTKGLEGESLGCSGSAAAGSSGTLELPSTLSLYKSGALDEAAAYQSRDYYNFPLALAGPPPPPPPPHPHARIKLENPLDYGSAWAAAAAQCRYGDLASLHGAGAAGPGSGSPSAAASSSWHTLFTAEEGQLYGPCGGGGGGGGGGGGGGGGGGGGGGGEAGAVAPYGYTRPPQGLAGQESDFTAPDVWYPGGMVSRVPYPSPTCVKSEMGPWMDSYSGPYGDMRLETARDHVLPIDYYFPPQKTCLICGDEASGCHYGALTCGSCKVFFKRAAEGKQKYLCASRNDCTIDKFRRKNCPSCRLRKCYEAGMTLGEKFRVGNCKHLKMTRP
# Assay comment: Degradation activity on androgen receptor splicing variant AR-v7 in 22RV1 cells (ELISA)
# Format: cell-based
# Measurement setup: AR-v7 degradation in 22RV1 cells, 48 h, class symbols
# Experimental: The degradation activity of the compound of the present invention on the androgen receptor splicing variant AR-V7 was analyzed using enzyme-linked immunosorbent assay (ELISA). The plate was cultured in a 5% CO2 cell incubator at 37° C. for 2 days until the cells adhered to the wall. • 2) The drug was prepared into 10 mM stock solution with dimethylsulfoxide (DMSO). […] The plate was gently shaken and mixed. […] The absorbance was read at 450 nm within 30 min. […]
The reader will find reported DC50 values listed item by item below.
Measured endpoint: DC50

{"Molecule": "C=CC(c1ccc(Oc2ccc(-n3nccn3)nn2)cc1)c1ccc(O[C@H]2C[C@H](Nc3ccc4c(c3)C(=O)N(C3CCC(=O)NC3=O)C4=O)C2)cc1 (stereo partly shown) [Example 371]", "Reading": "< 10 nM"}
{"Molecule": "CC(C)(c1ccc(OCc2ccnc(N3CC4CNCC4C3)n2)cc1)c1ccc(OC2CC(Nc3ccc4c(c3)C(=O)N(C3CCC(=O)NC3=O)C4=O)C2)cc1 (stereo not shown) [Example 80]", "Reading": "11 to 100 nM"}
{"Molecule": "CCC(CC)(c1ccc(OCCCCCCCCOCCCCNc2ccc3c(c2)C(=O)N(C2CCC(=O)NC2=O)C3=O)cc1)c1ccc(OCc2ccnc(NS(C)(=O)=O)n2)cc1 (stereo not shown) [Example 57]", "Reading": "101 to 1000 nM"}
{"Molecule": "CC(C)(c1ccc(OCc2ccnc(N3CC4(COC4)C3)n2)cc1)c1ccc(OC2CN(Cc3ccc4c(c3)C(=O)N(C3CCC(=O)NC3=O)C4=O)C2)cc1 (stereo not shown) [Example 148]", "Reading": "101 to 1000 nM"}
{"Molecule": "CC(C)(c1ccc(OCCCCCCCCOCCCCNc2ccc3c(c2)C(=O)N(C2CCC(=O)NC2=O)C3=O)cc1)c1ccc(OCc2nc(C(N)=O)no2)cc1 (stereo not shown) [Example 138]", "Reading": "1000 to 5000 nM"}
{"Molecule": "CC(C)(c1ccc(Oc2ncnc(N3CC4(COC4)C3)n2)cc1)c1ccc(O[C@H]2C[C@H](Nc3ccc4c(c3)C(=O)N(C3CCC(=O)NC3=O)C4=O)C2)cc1 (stereo partly shown) [Example 160]", "Reading": "< 10 nM"}
{"Molecule": "CC1CN(c2nccc(COc3ccc(C(C)(C)c4ccc(OC5CC(Nc6ccc7c(c6)C(=O)N(C6CCC(=O)NC6=O)C7=O)C5)cc4)cc3)n2)CC(C)N1 (stereo not shown) [Example 452]", "Reading": "11 to 100 nM"}
{"Molecule": "Cc1nc(-c2cnc(Oc3ccc(C(C)(C)c4ccc(O[C@H]5C[C@@H](Nc6ccc7c(c6)C(=O)N(C6CCC(=O)NC6=O)C7=O)C5)cc4)cc3)cn2)no1 (stereo partly shown) [Example 598]", "Reading": "11 to 100 nM"}
{"Molecule": "Cc1nc(-c2ccc(Oc3ccc(C(C)(C)c4ccc(O[C@H]5C[C@H](Nc6ccc7c(c6)C(=O)N(C6CCC(=O)NC6=O)C7=O)C5)cc4)cc3)nn2)no1 (stereo partly shown) [Example 328]", "Reading": "11 to 100 nM"}
{"Molecule": "CC(C)(c1ccc(OCc2ccnc(N3CCC4(CC3)COC4)n2)cc1)c1ccc(OC2CC(Nc3ccc4c(c3)C(=O)N(C3CCC(=O)NC3=O)C4=O)C2)cc1 (stereo not shown) [Example 78]", "Reading": "11 to 100 nM"}
{"Molecule": "Cc1nccc(Oc2ccc(C(C)(C)c3ccc(O[C@H]4C[C@@H](Nc5ccc6c(c5)C(=O)N(C5CCC(=O)NC5=O)C6=O)C4)cc3)cc2)n1 (stereo partly shown) [Example 198]", "Reading": "11 to 100 nM"}
{"Molecule": "CC(C)(c1ccc(Oc2ncc(-n3nccn3)cn2)cc1)c1ccc(O[C@H]2C[C@H](Nc3ccc4c(c3)C(=O)N(C3CCC(=O)NC3=O)C4=O)C2)cc1 (stereo partly shown) [Example 321]", "Reading": "< 10 nM"}
{"Molecule": "CC(C)(c1ccc(OCCCNc2ccc3c(c2)C(=O)N(C2CCC(=O)NC2=O)C3=O)cc1)c1ccc(OCc2nc(C(N)=O)co2)cc1 (stereo not shown) [Example 388]", "Reading": "11 to 100 nM"}
{"Molecule": "CC(C)(c1ccc(Oc2cc(-n3nccn3)ccn2)cc1)c1ccc(O[C@H]2C[C@H](Nc3ccc4c(c3)C(=O)N(C3CCC(=O)NC3=O)C4=O)C2)cc1 (stereo partly shown) [Example 165]", "Reading": "11 to 100 nM"}
{"Molecule": "Cc1nc(-c2ncc(Oc3ccc(C(C)(C)c4ccc(OC5CC(Nc6cc7c(cn6)C(=O)N(C6CCC(=O)NC6=O)C7=O)C5)cc4)cc3)cn2)no1 (stereo not shown) [Example 530]", "Reading": "101 to 1000 nM"}
{"Molecule": "CC(C)(c1ccc(OCc2ccnc(NC3COC3)n2)cc1)c1ccc(O[C@H]2C[C@@H](Nc3ccc4c(c3)C(=O)N(C3CCC(=O)NC3=O)C4=O)C2)cc1 (stereo partly shown) [Example 237]", "Reading": "< 10 nM"}
{"Molecule": "CC(C)(c1ccc(Oc2ccnc(N3CC4(COC4)C3)n2)cc1)c1ccc(OC2CC(Nc3ccc4c(c3)C(=O)N(C3CCC(=O)NC3=O)C4=O)C2)cc1 (stereo not shown) [Example 240]", "Reading": "< 10 nM"}
{"Molecule": "CC(C)(c1ccc(OCCCCOCCCCNc2ccc3c(c2)C(=O)N(C2CCC(=O)NC2=O)C3=O)cc1)c1ccc(OCc2ccnc(NS(C)(=O)=O)n2)cc1 (stereo not shown) [Example 54]", "Reading": "101 to 1000 nM"}
{"Molecule": "CC(C)(c1ccc(OCc2ccnc(N3CC4(COC4)C3)n2)cc1)c1ccc(OC2CCN(Cc3ccc4c(c3)C(=O)N(C3CCC(=O)NC3=O)C4=O)CC2)cc1 (stereo not shown) [Example 147]", "Reading": "1000 to 5000 nM"}
{"Molecule": "CC(C)(c1ccc(OCc2ccnc(-n3ccnc3)n2)cc1)c1ccc(OC2CC(Nc3ccc4c(c3)C(=O)N(C3CCC(=O)NC3=O)C4=O)C2)cc1 (stereo not shown) [Example 405]", "Reading": "< 10 nM"}
{"Molecule": "CCC(CC)(c1ccc(Oc2cnc(-c3noc(C)n3)nc2)cc1)c1ccc(O[C@H]2C[C@@H](Nc3ccc4c(c3)C(=O)N(C3CCC(=O)NC3=O)C4=O)C2)cc1 (stereo partly shown) [Example 553]", "Reading": "< 10 nM"}
{"Molecule": "CC(C)(c1ccc(OCCCCCCCCOCCN2CCN(c3ccc4c(c3)C(=O)N(C3CCC(=O)NC3=O)C4=O)CC2)cc1)c1ccc(OCc2ccnc(NS(C)(=O)=O)n2)cc1 (stereo not shown) [Example 1]", "Reading": "101 to 1000 nM"}

Value source: patent US20250051347A1
